# System Name: T1, Biotin-huCGRPaSA (human, not fully specified; biotin (position not given))
# T1 construct: exact construct ('aSA') not explained; also called Biotin CGRPaSA; full-length (1-37) CGRP
# T1 peptide: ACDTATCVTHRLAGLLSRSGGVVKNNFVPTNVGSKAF
# Protocol Description: ELISA, purified antibody; relative to reference 47-RM-20190815
Experimental Readout: Relative activity (%)

- C125 (antibody, V domains shown, 2B8-HC1 + 2B8-LC2; chimeric, human constant regions) VH: EVQLQQSGPELVKPGASVKISCKASGYTFTDYNMHWVKQSHGKSLEWIGNIYPYNGGTVYNQKFNNKATLTVHTSSSTAYMDLRSLTSDDSAVYYCAREGLGGYWGQGTTLTVSS VL: DVVLTQSPTSLAVSLGQRATISCQASQNIDGNTYMNWYQQKPGQPPKVLIYSIFNLESGIPARFSGSGSGTHFTLTIHPVEEEDAATYYCQQSNDYPYTFGGGTKLEIK: 62.9
- C74 (antibody, V domains shown, 1F5-HC + 1F5-LC1; chimeric, human constant regions) VH: EVQLQQSGPELVKPGASVKISCKTSGYTFIDFNMHWVKQSHGKSLEWIGYIYPYNGDVVYNQNFTNKATLTVDSSSSTAYMELRRVTSEDSAIYYCAREGLGGYWGQGTTLTVSS VL: DIVLTQSPASLAVSLGQRATISCKASQNIDFDGYAYMNWYQHKPGQPPRVLIYSVFNLESGIPARFSGSGSGTDFTLNIHPVEEEDAATYYCQQSHEVPYTFGGGTNLEIK: 39.5
- C117 (antibody, V domains shown, 2B8-HC1 + 1A2-LC2; chimeric, human constant regions) VH: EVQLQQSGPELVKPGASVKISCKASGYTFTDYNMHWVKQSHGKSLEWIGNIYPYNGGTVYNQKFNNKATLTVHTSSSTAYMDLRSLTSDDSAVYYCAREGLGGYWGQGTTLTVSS VL: DIVLTQSPASLAVSLGQRATISCKASQNIDYDGYAYLNWYQQKPGQPPKVLIYSVFNLESGIPARFSGSGSGTDFTLNIHPVEEEDAATYYCQQSNEFPYTFGGGTKLEVK: 31.7
